Molecular target: GST tagged Bcl w delta C29 protein (Homo sapiens, UniProt Q92843)
Assay: Alphascreen competition with Bim26mer, GST detection system
Type: binding
Details: competition with biotinylated BIM-BH3 peptide; 16-mers, Example 8; read-out: IC50 (nM) Bcl-w ΔC29
recorded_endpoint: IC50 (nM)
# output: bare number, implied unit nM

In: What does the data say about its IC50? Entry: Ac-IWIAQELRRIGDEFNA-NH2 [linear 16-mer, reference compound]
Out: 2.5

====

Assay: Circular dichroism, alpha-helical content of peptides
Type: physicochemical
Details: 30% aqueous trifluoroethanol
*1 amine or outer side, *2 acyl side, *3 side chain or, on linkers, in order; H or OH if unused. Where a SMILES comes first, the peptide text is derived from it. Bridges are numbered along the chain shown (N, C = ends). X1 = O=C(CN[*:1])NCCN[*:2]
recorded_endpoint: % Helicity (%)
Write the answer as a number in %, unit excluded.

In: What value of % Helicity has been reported for the following compound? CC[C@H](C)[C@H](NC(C)=O)C(=O)N[C@@H](C)C(=O)N[C@@H](CCC(N)=O)C(=O)N[C@H]1CCC(=O)NCC(=O)NCCNC(=O)CC[C@@H](C(=O)N[C@@H](Cc2ccccc2)C(N)=O)NC(=O)[C@H](CC(=O)O)NC(=O)CNC(=O)[C@H]([C@@H](C)CC)NC(=O)[C@H](CCCNC(=N)N)NC(=O)[C@H](CCCNC(=N)N)NC(=O)[C@H](CC(C)C)NC1=O [D] (Ac-IAQELRRIGDEF-NH2; linker 4-11 via X1)
Out: 16

====

Biological target: 6-His tagged Bcl w delta C10 protein (Homo sapiens)
Test: Alphascreen competition with Bim26mer, Hexa-His detection system
Assay type: binding
Conditions: competition with biotinylated Bim-BH3 peptide; read-out: IC50 (nM) Bcl-w ΔC10
*1 amine or outer side, *2 acyl side, *3 side chain or, on linkers, in order; H or OH if unused. Where a SMILES comes first, the peptide text is derived from it. Bridges are numbered along the chain shown (N, C = ends). NH(CH2)5NH = C(CCN[*:1])CCN[*:2]
recorded_endpoint: IC50 (nM)
The answer is to be given in nM; state only the numeric part.

In: Please report the recorded IC50 for CC[C@H](C)[C@H](NC(C)=O)C(=O)N[C@@H](C)C(=O)N[C@@H](CCC(N)=O)C(=O)N[C@H]1CCC(=O)NCCCCCNC(=O)CC[C@@H](C(=O)N[C@@H](Cc2ccccc2)C(N)=O)NC(=O)[C@H](CC(=O)O)NC(=O)CNC(=O)[C@H]([C@@H](C)CC)NC(=O)[C@H](CCCNC(=N)N)NC(=O)[C@H](CCCNC(=N)N)NC(=O)[C@H](CC(C)C)NC1=O [Peptide B, Acetyl-IAQ(E1)LRRIGD(E2)F-amide] (Ac-IAQELRRIGDEF-NH2; linker 4-11 via NH(CH2)5NH) .
Out: 65

====

Each entry below carries its recorded IC50.
Biological target: 6-His tagged Bcl w delta C10 protein (Homo sapiens, UniProt Q92843)
Sequence (Q92843 1-183 limits assumed): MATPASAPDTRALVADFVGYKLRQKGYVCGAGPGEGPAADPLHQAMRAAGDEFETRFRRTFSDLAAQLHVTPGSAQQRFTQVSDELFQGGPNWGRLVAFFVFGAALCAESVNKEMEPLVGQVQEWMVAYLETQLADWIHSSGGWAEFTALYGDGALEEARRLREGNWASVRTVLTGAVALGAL
Assay: Alphascreen competition with Bim26mer, Hexa-His detection system
Assay type: binding
Settings: competition with biotinylated Bim-BH3 peptide; read-out: IC50 (nM) Bcl-w ΔC10
*1 amine or outer side, *2 acyl side, *3 side chain or, on linkers, in order; H or OH if unused. Where a SMILES comes first, the peptide text is derived from it. Bridges are numbered along the chain shown (N, C = ends). Hexamethylenediamine = C(CCCN[*:2])CCN[*:1]; NH(CH2)5NH = C(CCN[*:1])CCN[*:2]; X1 = O=C(CN[*:1])NCCN[*:2]
Kindly provide the numeric value in nM only, without the unit symbol.

| compound | IC50 (nM) |
| --- | --- |
| CC[C@H](C)[C@H](NC(=O)[C@@H]1CCC(=O)NCCCCCNC(=O)CC[C@H](NC(C)=O)C(=O)N[C@@H]([C@@H](C)CC)C(=O)N[C@@H](C)C(=O)N[C@@H](CCC(N)=O)C(=O)N[C@@H](CCC(=O)O)C(=O)N[C@@H](CC(C)C)C(=O)N[C@@H](CCCNC(=N)N)C(=O)N1)C(=O)NCC(=O)N[C@@H](CC(=O)O)C(=O)N[C@@H](CCC(=O)O)C(=O)N[C@@H](Cc1ccccc1)C(N)=O [A, Ac-E-IAQELR-E-IGDEF-NH2] (Ac-EIAQELREIGDEF-NH2; linker 1-8 via NH(CH2)5NH) | 2600 |
| CC[C@H](C)[C@H](NC(C)=O)C(=O)N[C@@H](C)C(=O)N[C@@H](CCC(N)=O)C(=O)N[C@H]1CCC(=O)NCC(=O)NCCNC(=O)CC[C@@H](C(=O)N[C@@H](Cc2ccccc2)C(N)=O)NC(=O)[C@H](CC(=O)O)NC(=O)CNC(=O)[C@H]([C@@H](C)CC)NC(=O)[C@H](CCCNC(=N)N)NC(=O)[C@H](CCCNC(=N)N)NC(=O)[C@H](CC(C)C)NC1=O [D] (Ac-IAQELRRIGDEF-NH2; linker 4-11 via X1) | 40 |

Let us move to another entry and its IC50.
In: Quick check: IC50 of CC[C@H](C)[C@H](NC(C)=O)C(=O)N[C@@H](C)C(=O)N[C@@H](CCC(N)=O)C(=O)N[C@H]1CCC(=O)NCCCCCCNC(=O)CC[C@@H](C(=O)N[C@@H](Cc2ccccc2)C(N)=O)NC(=O)[C@H](CC(=O)O)NC(=O)CNC(=O)[C@H]([C@@H](C)CC)NC(=O)[C@H](CCCNC(=N)N)NC(=O)[C@H](CCCNC(=N)N)NC(=O)[C@H](CC(C)C)NC1=O [C, Ac-IAQ-E-LRRIGD-E-F-NH2] (Ac-IAQELRRIGDEF-NH2; linker 4-11 via Hexamethylenediamine) ?
Out: 230

Where do these numbers come from? They come from patent US20070032417A1.
